# systemTested: T1, human αvβ3 integrin ITGAVB3 (human, UniProt P06756 31-992; P05106 27-718, limits assumed)
# T1 construct: Recombinant heterodimer used as immunogen, ELISA coating and SPR ligand; also called A5B3; A5b3
# T1 sequence (P06756 31-992 limits assumed, chain 1 of 2): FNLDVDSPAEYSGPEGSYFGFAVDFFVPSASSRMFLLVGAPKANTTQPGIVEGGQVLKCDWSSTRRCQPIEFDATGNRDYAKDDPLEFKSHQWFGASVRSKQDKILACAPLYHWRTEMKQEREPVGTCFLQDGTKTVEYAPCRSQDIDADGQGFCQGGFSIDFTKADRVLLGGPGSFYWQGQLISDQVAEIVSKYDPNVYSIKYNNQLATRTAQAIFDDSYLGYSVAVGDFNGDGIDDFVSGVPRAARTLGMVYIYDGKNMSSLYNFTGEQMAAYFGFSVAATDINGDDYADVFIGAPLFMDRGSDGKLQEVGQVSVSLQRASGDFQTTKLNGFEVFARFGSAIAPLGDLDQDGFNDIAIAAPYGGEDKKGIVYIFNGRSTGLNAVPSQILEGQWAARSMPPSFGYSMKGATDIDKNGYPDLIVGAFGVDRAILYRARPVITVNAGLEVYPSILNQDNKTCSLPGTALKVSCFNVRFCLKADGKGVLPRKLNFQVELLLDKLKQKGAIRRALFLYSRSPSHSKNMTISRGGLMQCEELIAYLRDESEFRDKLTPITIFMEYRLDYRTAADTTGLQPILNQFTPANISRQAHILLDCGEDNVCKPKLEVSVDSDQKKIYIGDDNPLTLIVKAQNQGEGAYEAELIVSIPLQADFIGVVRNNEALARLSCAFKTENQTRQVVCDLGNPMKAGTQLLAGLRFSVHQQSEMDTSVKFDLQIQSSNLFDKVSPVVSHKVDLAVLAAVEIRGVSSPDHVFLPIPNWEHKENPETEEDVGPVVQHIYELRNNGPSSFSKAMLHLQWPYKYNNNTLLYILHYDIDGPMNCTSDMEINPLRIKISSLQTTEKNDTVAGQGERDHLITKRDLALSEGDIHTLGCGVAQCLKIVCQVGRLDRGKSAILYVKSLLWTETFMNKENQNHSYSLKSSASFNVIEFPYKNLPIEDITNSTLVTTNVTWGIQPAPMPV
# T1 sequence (P05106 27-718 limits assumed, chain 2 of 2): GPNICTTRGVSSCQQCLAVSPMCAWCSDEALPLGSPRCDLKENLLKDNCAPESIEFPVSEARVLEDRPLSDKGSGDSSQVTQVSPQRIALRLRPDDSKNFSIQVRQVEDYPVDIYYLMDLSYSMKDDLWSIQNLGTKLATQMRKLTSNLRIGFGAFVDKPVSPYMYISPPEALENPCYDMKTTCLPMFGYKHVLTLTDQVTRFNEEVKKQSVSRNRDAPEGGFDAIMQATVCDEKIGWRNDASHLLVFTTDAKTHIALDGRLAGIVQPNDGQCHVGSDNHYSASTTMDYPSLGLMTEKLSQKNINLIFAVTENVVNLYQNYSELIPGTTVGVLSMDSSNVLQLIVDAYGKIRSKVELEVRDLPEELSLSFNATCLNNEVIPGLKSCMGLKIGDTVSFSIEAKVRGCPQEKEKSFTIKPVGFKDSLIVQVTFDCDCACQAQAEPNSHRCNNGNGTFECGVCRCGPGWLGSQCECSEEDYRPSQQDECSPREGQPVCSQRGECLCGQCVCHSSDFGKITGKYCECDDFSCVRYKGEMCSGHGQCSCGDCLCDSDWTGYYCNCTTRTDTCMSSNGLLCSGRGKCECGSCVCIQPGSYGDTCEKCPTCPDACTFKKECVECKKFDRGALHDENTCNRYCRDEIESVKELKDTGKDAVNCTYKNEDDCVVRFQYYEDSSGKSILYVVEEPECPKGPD
# assayProcedure: phage ELISA, coated ITGAVB3, anti-M13-HRP, 490 nm
readoutName: OD490
Please reply with the value in numeric form only.

Q. Could you tell me which OD490 is on file for VHH-15 (VHH, also called clone 15) VHH: EVQLVESGGGSVQPGESLRLSCVASGYTVSSSCMAWFRQAPGKEREVVATIVVTSDTTSTFYADSVKGRFTISPDNAKNTLNLQMNSLEPPDTAMYYCAADRKWNVCSRGYRYTPNWANQFTFWGQGTQVTVSS ?
A. 1.97

Q. Recorded OD490 for VHH-13 (VHH, also called clone 13) VHH: HVQLVESGGGSVQPGESLRLSCVASGYTVSSSCMAWFRQAPGKEREVVATIVVTSDTTSTFYADSVKGRFTISPDNAKNTLNLQMNSLEPSDTAMYYCAADRKWNVCSRGYRYTPNWANQFTFWGQGTQVTVSS , please?
A. 2.01

Q. Could you share which OD490 value was measured for VHH-17 (VHH, also called clone 17) VHH: DVQLVESGGGSVQPGESLRLSCVASGYTVSSSCMAWFRQAPGKEREVVATIVVTSDTTSTFYADSVKGRFTISPDNAKNTLNLQMNSLEPSDTAMYYCAADRKWNVCSRGYRYTPNWANQFTFWGQGTLVTVSS ?
A. 1.81

Q. Value lookup for OD490; key = VHH-22 (VHH, also called clone 22) VHH: QVQLVESGGGSVQAGGSLRLSCVVSGYTCSVYDMIWYRQPPGKEREFVSLINSNGRTTYADSVKGRFTISQNNAKNTVYLQMNSLKPEDTAMYYCHAACYSPSRLNYWGQGTLVTVSS
A. 2.04

Q. Any idea what OD490 was measured for clone 14 (VHH) VHH: DVQLVESGGGSVQPGESLRLSCVASGYTVSSSCMAWFRQAPGKEREVVATIVVTSDTTSTFYADSVKGRFTISPDNAKNTLNLQMNSLEPSDTAMYYCAADRKWNVCSRGYRYTPNWANQFTFWGQGTLVTVSS ?
A. 1.93

Q. For the binder shown here, clone 26 (VHH) VHH: QVQLVESGGGSVQAGGSLRLSCVVSGYTCSVYDMIWYRQPPGKEREFVSLINSNGRTTYADSVKGRFTISQNNAKNTVYLQMNSLKPEDTAMYYCHAACYSPSRLNYWGQGTLVTVSS , give the reported OD490.
A. 2.01

Q. Given the entry clone 33 (VHH) VHH: EVQLVESGGGSVQAGGSLRLSCVVSGYTCSVYDMIWYRQPPGKEREFVSLINSNGRTTYADSVKGRFTISQNNAKNTVYLQMNSLKPEDTAMYYCHAACYSPSRLNYWGQGTQVTVSS , report its measured OD490.
A. 1.86

Q. Item clone 30 (VHH) VHH: DVQLVESGGGSVQPGGSLRLSCAASGYTVDNSCMAWFRQAPGKEREVVATIVTNNATSTFYADSVKGRFTVSHDNAKNTLNLQMNTLEPEDTAMYYCAADTKWIVCSRGYRYTPNWANHFNYWGQGTLVTVSS has what recorded OD490?
A. 1.97

Q. Given the binder VHH-23 (VHH, also called clone 23) VHH: HVQLVESGGGSVQTGGSLRLSCAASGYTSSTVYMAWFRQTPGKQREGVAAIYTGGGPTYYADSVKGRFTISQDNAKNTVYLQMNTLKPEDTAMYYCAADRYVYRLVTNWYRPSFYTYWGQGTQVTVSS , what is its reported OD490?
A. 2.04

Q. Consider the binder clone 3 (VHH) VHH: EVQLVESGGGSVQPGESLRLSCVASGYTVSSSCMAWFRQAPGKEREVVATIVVTSDTTSTFYADSVKGRFTISPDNAKNTLNLQMNSLEPPDTAMYYCAADRKWNVCSRGYRYTPNWANQFTFWGQGTQVTVSS and give its measured OD490.
A. 1.88

Q. Find the recorded OD490 belonging to VHH-20 (VHH, also called clone 20) VHH: DVQLVESGGGSVQPGGSLRLSCAASGYTVDNSCMAWFRQAPGKEREVVATIVTNNATSTFYADSVKGRFTVSHDNAKNTLNLQMNTLEPEDTAMYYCAADTKWIVCSRGYRYTPNWANHFNYWGQGTLVTVSS and report it.
A. 1.98
